IC50 values for the molecules below.
STUDY SYSTEM: Avi-KRAS G12D (1-169) GppNHp/RAF1 RBD-3xFLAG (52-151) (Homo sapiens, UniProt P01116, G12D)
Construct: 100 nM Avi-KRAS G12D (1-169) GppNHp
Sequence (P01116 1-169 isoform P01116-2 G12D): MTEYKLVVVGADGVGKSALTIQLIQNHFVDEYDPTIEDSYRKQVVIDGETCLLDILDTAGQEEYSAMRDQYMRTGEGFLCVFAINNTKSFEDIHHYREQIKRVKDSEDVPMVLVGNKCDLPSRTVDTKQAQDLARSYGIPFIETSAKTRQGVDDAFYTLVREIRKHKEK
METHOD: RAS-effector PPI HTRF disruption assay, Raf1-GppNHp-KRAS G12D

- Nc1nc2c(-c3ncc4c(O[C@@H]5CCNC5)nc(OC[C@@]56CCCN5C[C@H](F)C6)nc4c3F)c(F)cc(F)c2s1: > 10 µM
- C[C@H]1NCC[C@H]1Oc1nc(OC[C@@]23CCCN2C[C@H](F)C3)nc2c(F)c(-c3ccc(F)c4sc(N)nc34)ccc12: > 10 µM
- N#Cc1c(N)sc2c(F)ccc(-c3c(C(F)(F)F)cc4c(O[C@@H]5CCNC5)nc(N5CC(N6CC7(CC7)C6)C5)nc4c3F)c12: 0.1 to 1 µM
- N#Cc1c(N)sc2c(F)ccc(-c3c(Cl)cc4c(O[C@@H]5CNC[C@H]5F)nc(OC[C@@]56CCCN5C[C@H](F)C6)nc4c3F)c12 (atropisomer, axis not shown): > 10 µM
- N#Cc1c(N)sc2c(F)ccc(-c3c(C(F)(F)F)cc4c(OC5CC6(CNC6)C5)nc(OC[C@@]56CCCN5C[C@H](F)C6)nc4c3F)c12: 0.1 to 1 µM

Recall the reported IC50 of C[C@@H]1CNCC1Oc1nc(OC[C@@]23CCCN2C[C@H](F)C3)nc2c(F)c(-c3ccc(F)c4scnc34)c(C(F)(F)F)cc12 (stereo partly drawn) when tested on Avi-KRAS G12D (1-169) GppNHp/RAF1 RBD-3xFLAG (52-151) (Homo sapiens, UniProt P01116, G12D).
> 10 µM

* * *

pIC50 values for the compounds below.
STUDY SYSTEM: Avi-KRAS WT (1-169) GppNHp/RAF1 RBD-3xFLAG (52-151) (Homo sapiens)
Construct: 50 nM Avi-KRAS WT (1-169) GppNHp
METHOD: RAS-effector PPI HTRF disruption assay, Raf1-GppNHp-KRAS WT
pIC50: −log10 of the molar value.

- Nc1nc2c(-c3c(C(F)(F)F)cc4c(O[C@H]5CCNC5)nc(OC[C@@]56CCCN5C[C@H](F)C6)nc4c3F)ccc(F)c2s1: 6.00 to 7.00
- Nc1nc2c(-c3c(C(F)(F)F)cc4c(O[C@H]5CNC[C@@H]5F)nc(OC[C@@]56CCCN5C[C@H](F)C6)nc4c3F)ccc(F)c2s1 (atropisomer, axis not shown) [Compound 18]: < 5.00
- C[C@@H]1CNCC1Oc1nc(OC[C@@]23CCCN2C[C@H](F)C3)nc2c(F)c(-c3ccc(F)c4sc(N)nc34)c(C(F)(F)F)cc12 (some centres unmarked) [Compound 16]: 5.00 to 6.00
- N#Cc1c(N)sc2c(F)ccc(-c3c(Cl)cc4c(O[C@@H]5CNC[C@@H]5F)nc(OC[C@@]56CCCN5C[C@H](F)C6)nc4c3F)c12: 5.00 to 6.00

Here is another compound to look at.
Tell me its pIC50 given COC[C@H]1C[C@@H](Oc2nc(OC[C@@]34CCCN3C[C@H](F)C4)nc3c(F)c(-c4ccc(F)c5sc(N)c(C#N)c45)c(C(F)(F)F)cc23)CN1 (atropisomer, axis not shown) [Compound 81] as the entry.
< 5.00

* * *

IC50 values for the molecules below.
STUDY SYSTEM: Avi-KRAS G12D/Q25A (1-169) GppNHp/3xFLAG-PI3KCA (157-299) (Homo sapiens, UniProt P01116, G12D/Q25A)
Construct: 375 nM Avi-KRAS G12D/Q25A (1-169) GppNHp
Sequence (P01116 1-169 isoform P01116-2 G12D/Q25A): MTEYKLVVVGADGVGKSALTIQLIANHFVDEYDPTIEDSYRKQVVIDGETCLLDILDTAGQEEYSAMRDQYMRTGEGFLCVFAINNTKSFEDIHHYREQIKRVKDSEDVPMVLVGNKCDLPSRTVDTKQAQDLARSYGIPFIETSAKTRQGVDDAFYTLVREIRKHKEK
METHOD: RAS-effector PPI HTRF disruption assay, PI3KCA-GppNHp-KRAS G12D/Q25A

# count of solved cases: 6
* N#Cc1c(N)sc2c(F)ccc(-c3c(C(F)(F)F)cc4c(O[C@H]5CNC[C@@H]5F)nc(OC[C@@]56CCCN5C[C@H](F)C6)nc4c3F)c12 [Compound 53] | 0.1 to 1 µM
* C[C@@H]1NCC[C@H]1Oc1nc(OC[C@@]23CCCN2C[C@H](F)C3)nc2c(F)c(-c3ccc(F)c4sc(N)nc34)c(C(F)(F)F)cc12 (atropisomer, axis not shown) [Compound 9] | > 10 µM
* N#Cc1c(N)sc2c(F)ccc(-c3ncc4c(O[C@H]5CNC[C@H]5F)nc(OC[C@@]56CCCN5C[C@H](F)C6)nc4c3F)c12 [Compound 51] | 1 to 10 µM
* Nc1nc2c(-c3c(C(F)(F)F)cc4c(O[C@H]5CNC[C@@H]5F)nc(OC[C@@]56CCCN5C[C@H](F)C6)nc4c3F)ccc(F)c2s1 (atropisomer, axis not shown) [Compound 17] | 0.1 to 1 µM
* N#Cc1c(N)sc2c(F)ccc(-c3ccc4c(O[C@H]5CNC[C@@H]5F)nc(OC[C@@]56CCCN5C[C@H](F)C6)nc4c3F)c12 [Compound 71] | 1 to 10 µM
* C[C@H]1CNCC1Oc1nc(OC[C@@]23CCCN2C[C@H](F)C3)nc2c(F)c(-c3ccc(F)c4sc(N)nc34)c(C(F)(F)F)cc12 (some centres unmarked) [Compound 2] | 1 to 10 µM

Tell me its IC50 given N#Cc1c(N)sc2c(F)ccc(-c3c(F)cc4c(O[C@@H]5CCNC5)nc(OC[C@@]56CCCN5C[C@H](F)C6)nc4c3F)c12 [Compound 77] as the entry.
> 10 µM

Tell me its IC50 given C[C@H]1C[C@@H](Oc2nc(OC[C@@]34CCCN3C[C@H](F)C4)nc3c(F)c(-c4ccc(F)c5sc(N)nc45)c(C(F)(F)F)cc23)CN1 [Compound 7] as the entry.
1 to 10 µM

* * *

STUDY SYSTEM: Avi-KRAS G12D/Q25A (1-169) GppNHp/3xFLAG-PI3KCA (157-299) (Homo sapiens, UniProt P01116, G12D/Q25A)
Construct: 375 nM Avi-KRAS G12D/Q25A (1-169) GppNHp
METHOD: RAS-effector PPI HTRF disruption assay, PI3KCA-GppNHp-KRAS G12D/Q25A
Experimental: A protein:protein interaction (PPI) Homogeneous Time Resolved Fluorescence (HTRF) assay was used to determine the effectiveness of compounds of the present disclosure in disrupting KRAS protein and effector (RAF1 or PIK3 CA) binding. […] Plates were analyzed on an Envision plate reader using the following setting: Excitation 320 nm, Bandwidth […]; Emission 615 nm, Bandwidth […], Gain 100%, Flashes 100, Lag 60 μs. […] Data was plotted and analyzed using Prism 8. […]
pIC50: −log10 of the molar value.
MEASUREMENT NAME: pIC50

# count of solved cases: 3
- C[C@@H]1C[C@@H](Oc2nc(OC[C@@]34CCCN3C[C@H](F)C4)nc3c(F)c(-c4ccc(F)c5sc(N)nc45)c(C(F)(F)F)cc23)CN1 (atropisomer, axis not shown) [Compound 21]: < 5.00
- N#Cc1c(N)sc2c(F)ccc(-c3ncc4c(O[C@@H]5CCNC5)nc(OC[C@@]56CCCN5C[C@H](F)C6)nc4c3F)c12: < 5.00
- Nc1nc2c(-c3c(C(F)(F)F)cc4c(O[C@H]5CCNC5)nc(OC[C@@]56CCCN5C[C@H](F)C6)nc4c3F)ccc(F)c2s1: 5.00 to 6.00

Tell me its pIC50 given C[C@H]1NCC[C@H]1Oc1nc(OC[C@@]23CCCN2C[C@H](F)C3)nc2cc(-c3ccc(F)c4sc(N)nc34)c(C(F)(F)F)cc12 as the entry.
< 5.00

Tell me its pIC50 given C[C@H]1NCC[C@H]1Oc1nc(OCC23CCCN2C[C@H](F)C3)nc2c(F)c(-c3ccc(F)c4sc(N)nc34)c(C(F)(F)F)cc12 (stereo partly drawn) as the entry.
6.00 to 7.00

Tell me its pIC50 given Nc1nc2c(-c3c(C(F)(F)F)cc4c(O[C@H]5CN[C@H](CO)C5)nc(OCC56CCCN5C[C@H](F)C6)nc4c3F)ccc(F)c2s1 (stereo partly drawn) as the entry.
5.00 to 6.00

* * *

pIC50 values for the compounds below.
STUDY SYSTEM: Avi-KRAS WT (1-169) GppNHp/RAF1 RBD-3xFLAG (52-151) (Homo sapiens, UniProt P01116)
Construct: 50 nM Avi-KRAS WT (1-169) GppNHp
Sequence (P01116 1-169 isoform P01116-2): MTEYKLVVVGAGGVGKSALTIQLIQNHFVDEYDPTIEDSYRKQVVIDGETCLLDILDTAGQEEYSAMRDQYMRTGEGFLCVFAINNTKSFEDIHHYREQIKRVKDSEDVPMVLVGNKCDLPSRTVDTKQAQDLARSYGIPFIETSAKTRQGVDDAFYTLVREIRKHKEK
METHOD: RAS-effector PPI HTRF disruption assay, Raf1-GppNHp-KRAS WT
Protocol: A protein:protein interaction (PPI) Homogeneous Time Resolved Fluorescence (HTRF) assay was used to determine the effectiveness of compounds of the present disclosure in disrupting KRAS protein and effector (RAF1 or PIK3 CA) binding. […] Plates were analyzed on an Envision plate reader using the following setting: Excitation 320 nm, Bandwidth […]; Emission 615 nm, Bandwidth […], Gain 100%, Flashes 100, Lag 60 μs. […] Data was plotted and analyzed using Prism 8. […]
pIC50: −log10 of the molar value.

Tell me its pIC50 given N#Cc1c(N)sc2c(F)ccc(-c3ccc4c(O[C@H]5CNC[C@@H]5F)nc(OC[C@@]56CCCN5C[C@H](F)C6)nc4c3F)c12 as the entry.
5.00 to 6.00

Tell me its pIC50 given C[C@@H]1NCC[C@H]1Oc1nc(OC[C@@]23CCCN2C[C@H](F)C3)nc2c(F)c(-c3ccc(F)c4sc(N)nc34)c(C(F)(F)F)cc12 (atropisomer, axis not shown) [Compound 9] as the entry.
< 5.00

Tell me its pIC50 given N#Cc1c(N)sc2c(F)ccc(-c3c(Cl)cc4c(O[C@@H]5CN[C@H](CO)C5)nc(OC[C@@]56CCCN5C[C@H](F)C6)nc4c3F)c12 as the entry.
6.00 to 7.00

Tell me its pIC50 given C[C@H]1NCC[C@H]1Oc1nc(OC[C@@]23CCCN2C[C@H](F)C3)nc2c(F)c(-c3ccc(F)c4sc(N)nc34)ccc12 as the entry.
< 5.00

Tell me its pIC50 given N#Cc1c(N)sc2c(F)ccc(-c3c(C(F)(F)F)cc4c(O[C@H]5CNC[C@@H]5F)nc(OC[C@@]56CCCN5C[C@H](F)C6)nc4c3F)c12 as the entry.
6.00 to 7.00

Tell me its pIC50 given N#Cc1c(N)sc2c(F)ccc(-c3c(C(F)(F)F)cc4c(O[C@@H]5CCN[C@@H]5CO)nc(OC[C@@]56CCCN5C[C@H](F)C6)nc4c3F)c12 as the entry.
6.00 to 7.00

Tell me its pIC50 given C[C@H]1NCC[C@H]1Oc1nc(OCC23CCCN2C[C@H](F)C3)nc2c(F)c(-c3ccc(F)c4sc(N)nc34)c(C(F)(F)F)cc12 (stereo partly drawn) as the entry.
6.00 to 7.00

Tell me its pIC50 given Nc1nc2c(-c3c(C(F)(F)F)cc4c(O[C@@H]5CCNC5)nc(OC[C@@]56CCCN5C[C@H](F)C6)nc4c3F)ccc(F)c2s1 (atropisomer, axis not shown) [Compound 4] as the entry.
5.00 to 6.00

Tell me its pIC50 given C[C@H]1NCC[C@@H]1Oc1nc(OC[C@@]23CCCN2C[C@H](F)C3)nc2c(F)c(-c3ccc(F)c4sc(N)c(C#N)c34)c(Cl)cc12 as the entry.
6.00 to 7.00

Tell me its pIC50 given N#Cc1c(N)sc2c(F)ccc(-c3ncc4c(O[C@@H]5CCNC5)nc(OC[C@@]56CCCN5C[C@H](F)C6)nc4c3F)c12 as the entry.
5.00 to 6.00

Tell me its pIC50 given Nc1nc2c(-c3c(C(F)(F)F)cc4c(O[C@@H]5CCNC5)nc(OC[C@@]56CCCN5C[C@H](F)C6)nc4c3F)ccc(F)c2s1 (atropisomer, axis not shown) [Compound 5] as the entry.
< 5.00

Tell me its pIC50 given N#Cc1c(N)sc2c(F)ccc(-c3cc4nc(OC[C@@]56CCCN5C[C@H](F)C6)nc(O[C@H]5CNC[C@H]5F)c4cc3C(F)(F)F)c12 as the entry.
5.00 to 6.00
